Each item that follows carries a reported GI50.
test system: SK-MEL-5; test: NCI tumour cell line growth inhibition, 48 h
Activity calls are given as the source filed them. Cut-off read from the data, not from the text of the source: active = GI50 up to about 1.1 µM and inactive = higher.

Take a look at these entries with their results.
* S=C(N/N=C(\c1ccccc1)c1ccccn1)NC1CCCCC1 | 13.1 µM (inactive)
* O=C1C2Cc3ccccc3CN2C(=O)N1CCN1CCOCC1 (configuration not stated) | > 100 µM (inactive)
* O=C(COC(=O)c1cccc2c(=O)c3ccccc3[nH]c12)Nc1ccccc1 | 19.8 µM (inactive)
* N#CCN1c2ccccc2CCC1Cl (configuration not stated) | > 10 µM (inactive)
* COc1ccccc1-n1c(N)c2c(C)c(-c3ccccc3)[nH]c2nc1=S | 4.76 µM (inactive)

Test system SK-MEL-5; read-out GI50; what value for `Cc1noc2cccc(OCc3ccccc3)c12` ?
17.1 µM (inactive)

Test system SK-MEL-5; read-out GI50; what value for `N[C@@H]1CCN(c2c(F)cc3c(=O)c(C(=O)O)cn4c3c2Oc2cc3c(ccc5ccccc53)cc2-4)C1` ?
2.92 µM (inactive)

Test system SK-MEL-5; read-out GI50; what value for `COc1ccc(-c2nc3ccc([N+](=O)[O-])cc3c(=O)[nH]2)cc1` ?
> 100 µM (inactive)

Test system SK-MEL-5; read-out GI50; what value for `O=c1cc2ccccc2nn1-c1ccccc1Cl` ?
69 µM (inactive)

Test system SK-MEL-5; read-out GI50; what value for `CN1CN(c2ccccc2)C2(CCNCC2)C1=O` ?
> 100 µM (inactive)

Test system SK-MEL-5; read-out GI50; what value for CCCCCCCCCCCCCC(=O)OC(/C=C/C(C)C)C(O)C(O)C(OC)C(=O)NC1CCCCNC1=O (configuration not stated) ?
1.9 µM (inactive)

Test system SK-MEL-5; read-out GI50; what value for CNc1nnnn1C1OC(CO)C(O)C1O (configuration not stated) ?
> 100 µM (inactive)

---

system: MCF7; experiment: NCI tumour cell line growth inhibition, 48 h
Activity calls are given as the source filed them. Cut-off read from the data, not from the text of the source: active = GI50 up to about 1.1 µM and inactive = higher.
Each item that follows carries a reported GI50.

* CC1(C)CCC[C@]2(C)[C@@H]1CC[C@@]13O[C@@H]1C1=C(CO)C(=O)O[C@]14O[C@@H]4[C@@H]23 | 15.3 µM (inactive)
* CCOC(=O)c1ccc(-c2onc(C)c2Br)[nH]1 | 27.7 µM (inactive)
* O=C(O)C1C2C=CC(O2)C1C(=O)NCc1ccncc1 (stereo not given) | > 100 µM (inactive)
* CCOC(=O)/C(=C\NC(N)=S)C(=O)c1ccccc1 | > 100 µM (inactive)
* C[C@@H]1CC[C@@]2(C)[C@H](C)/C(=C\COC(=O)/C=C/c3ccc(O)c(O)c3)CC[C@@]12C [NAVICULYL CAFFEATE] | 2.83 µM (inactive)
* COc1ccc(N[S+]([O-])CCc2ccccc2)cc1 (stereo not given) | > 100 µM (inactive)

// below: GI50 requested for another compound
Consider the compound `Cc1nc(-c2cc3c(ccc4ccccc43)oc2=O)cs1` and give its measured GI50.
> 100 µM (inactive)

---

system: KM12; assay: NCI tumour cell line growth inhibition, 48 h
Activity calls are given as the source filed them. No stated cut-off is given here; in the data, active = GI50 up to about 1.1 µM and inactive = higher.
The reply should name one outcome from TRUE for active, FALSE for inactive

A selection of reference data follows.
* Cc1nc2c(n1Cc1ccc(Cl)cc1)C(=O)c1ccccc1C2=O | FALSE
* O=c1[nH]c2ccc(CC(=S)N3CCN(c4ccccc4)CC3)cc2s1 | FALSE
* CC12CC(c3ccccc3O1)C(C(=O)Nc1ccc(Cl)cc1Cl)C(=O)N2 (centres undefined) | FALSE

Hi, do you know how `Cc1cc([N+](=O)[O-])ccc1Nc1cccc(Cl)c1C` came out in this test?
FALSE

Hi, do you know how `CC(=O)O[C@H]1C(=O)[C@@]2(C)[C@H]([C@H](OC(=O)c3ccc(F)cc3)[C@]3(O)C[C@H](OC(=O)[C@H](O)[C@@H](NC(=O)c4ccccc4)c4ccccc4)C(C)=C1C3(C)C)[C@]1(OC(C)=O)CO[C@@H]1C[C@@H]2O` came out in this test?
TRUE

---

tested on: K562; experiment: NCI tumour cell line growth inhibition, 48 h
Calls of active or inactive are those of the source. Cut-off read from the data, not from the text of the source: active = GI50 up to about 1.1 µM and inactive = higher. Square brackets hold non-standard residues; d marks the D form. Peptide text beside a SMILES is read from it. * marks the point of attachment. Bn2Val = CC(C)[C@@H](C(=O)*)N(Cc1ccccc1)Cc1ccccc1; NH(3,4-diMeO-benzyl) = COc1ccc(CN*)cc1OC; NMeV = CN[C@H](C(=O)O)C(C)C; dNMeA = CN[C@H](C)C(=O)O
recorded.endpoint: GI50

Take a look at these entries with their results.
* CN1N=C(c2ccccc2)c2cc(Cl)ccc2N=C1N/N=C/c1ccc(N(C)C)cc1 | 64.3 µM (inactive)
* CN(C)CC1=Nc2cccc3cccc(c23)N1 | 16.7 µM (inactive)
* COc1ccc(CNC(=O)[C@@H](C)N(C)C(=O)[C@@H]2CCCN2C(=O)[C@H](C(C)C)N(C)C(=O)[C@@H](NC(=O)[C@H](C(C)C)N(Cc2ccccc2)Cc2ccccc2)C(C)C)cc1OC (Bn2Val-V[NMeV]P[dNMeA]-{NH(3,4-diMeO-benzyl)}) | 10.8 µM (inactive)
* ClC1(c2ccccc2)c2ccc(Br)cc2-c2cc(Br)ccc21 | > 100 µM (inactive)
* COc1ccc2cc1Oc1ccc(cc1)C[C@@H]1c3cc(c(OC)cc3CCN1C)Oc1c(OC)c(OC)cc3c1[C@@H](C2)N(C)CC3 | 2.11 µM (inactive)

// below: GI50 requested for another molecule
Test system K562; read-out GI50; what value for Cc1cc2c([nH]c3ccccc32)c2c1OC(C)(C)C1C3CC(C)(C)Oc4c(C)cc5c6ccccc6n(c5c43)C21 (stereo unspecified) ?
> 100 µM (inactive)

---

tested on: CAKI-1; assay: NCI tumour cell line growth inhibition, 48 h
Activity calls are given as the source filed them. Cut-off read from the data, not from the text of the source: active = GI50 up to about 1.1 µM and inactive = higher.
The reply should name one outcome from T for active, F for inactive

* CSc1ncnc2c1ncn2CCC(=O)OC(C)(C)C | F
* CC1=Nc2c(O)nc(S)nc2NC(c2c(Cl)cccc2Cl)C1 (stereo unspecified) | F
* Cc1ccc(-c2cn3c(nc4ccccc43)c(-c3ccccc3)n2)cc1 | F
* O=C1/C(=C\c2cccs2)Oc2ccccc21 | F
* O=C(N/N=C\c1ccc(Cl)cc1)Nc1cccc2ccccc12 | F

Hi, do you know how `COc1ccc2nc3ccccc3c(NCCCCCN(CCCl)CCCl)c2c1` came out in this test?
T

Hi, do you know how `CCCCN(CCCC)CC(=O)c1ccc2cc(Cl)c3ccccc3c2c1` came out in this test?
F

Hi, do you know how `COC(=O)/C=C\C(C#N)(C#N)/N=C/c1ccc(Br)cc1` came out in this test?
F

Hi, do you know how `C1CSCCSCSCCS1` came out in this test?
F

Hi, do you know how `COc1cc2c(c(OC)c1OC)C(=O)NCCC2` came out in this test?
F

Hi, do you know how `O=c1[nH]c2ccc(C(F)(F)F)cc2nc1Cc1ccccc1` came out in this test?
F

Hi, do you know how `CCc1n[nH]c(=O)n1N=C(c1ccccc1)c1ccccc1` came out in this test?
F

Hi, do you know how `O=C(COC(=O)c1cccc2c(=O)c3ccccc3[nH]c12)Nc1ccccc1` came out in this test?
F

Hi, do you know how `Cc1cc([N+](=O)[O-])ccc1Nc1cccc(Cl)c1C` came out in this test?
F

Hi, do you know how O=C(CC1(O)C(=O)Nc2c(Cl)cc(Cl)cc21)c1ccc([N+](=O)[O-])cc1 (stereo unspecified) came out in this test?
F

Hi, do you know how NC1=C(c2nc(-c3ccccc3)cs2)C(c2ccco2)c2c(c3ccccc3oc2=O)O1 (stereo unspecified) came out in this test?
F

---

system: EKVX; experiment: NCI tumour cell line growth inhibition, 48 h
Active and inactive are the calls of the source. No stated cut-off is given here; in the data, active = GI50 up to about 1.1 µM and inactive = higher.
recorded.endpoint: GI50

- COc1cccc(NC(=O)/C(Cc2nc3ccccc3nc2C)=N/NC(=O)C[n+]2ccccc2)c1: > 100 µM (inactive)

Consider the molecule CC(O)CCNC(=O)Nc1c(C(F)(F)F)cc(-c2ccccc2)[nH]c1=O (stereo not given) and give its measured GI50.
> 100 µM (inactive)

Consider the molecule `COc1cc(Nc2nc3ccccc3nc2C(C)C)cc(OC)c1OC` and give its measured GI50.
42.7 µM (inactive)

---

Reported GI50 for target or system HCT-15, by entry.

Take a look at these entries with their results.
- O=C(O)C1CCN(Cc2oc(CO)cc(=O)c2O)C1 (centres undefined): > 100 µM
- O=C(CN(c1ccc(S(=O)(=O)O)cc1)c1ccc(S(=O)(=O)O)cc1)Nn1cnc2ccc(S(=O)(=O)N(c3ccc(S(=O)(=O)O)cc3)c3ccc(S(=O)(=O)O)cc3)cc2c1=O: > 100 µM
- COC1OC2COC(C)(C)OC2C(OC(C)=O)C1NC(=O)N(CCCl)N=O (centres undefined): > 100 µM

// below: GI50 requested for another molecule
Consider the molecule COc1cc(C2c3c(ccc4ccccc34)C(=O)C3CCC(=O)N32)cc(OC)c1OC (centres undefined) and give its measured GI50.
> 50 µM
